target: furin, P09958; experiment: furin cleavage Z-score vs untreated control; higher = more cleavage, active = 3.5 or more, inactive = 1 or less, 8 variable residues between constant flanks; settings: 30 min;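 also: purified furin at 1:10 enzyme:substrate in 50 mM HEPES pH 7.5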
Sequence (P09958 whole entry): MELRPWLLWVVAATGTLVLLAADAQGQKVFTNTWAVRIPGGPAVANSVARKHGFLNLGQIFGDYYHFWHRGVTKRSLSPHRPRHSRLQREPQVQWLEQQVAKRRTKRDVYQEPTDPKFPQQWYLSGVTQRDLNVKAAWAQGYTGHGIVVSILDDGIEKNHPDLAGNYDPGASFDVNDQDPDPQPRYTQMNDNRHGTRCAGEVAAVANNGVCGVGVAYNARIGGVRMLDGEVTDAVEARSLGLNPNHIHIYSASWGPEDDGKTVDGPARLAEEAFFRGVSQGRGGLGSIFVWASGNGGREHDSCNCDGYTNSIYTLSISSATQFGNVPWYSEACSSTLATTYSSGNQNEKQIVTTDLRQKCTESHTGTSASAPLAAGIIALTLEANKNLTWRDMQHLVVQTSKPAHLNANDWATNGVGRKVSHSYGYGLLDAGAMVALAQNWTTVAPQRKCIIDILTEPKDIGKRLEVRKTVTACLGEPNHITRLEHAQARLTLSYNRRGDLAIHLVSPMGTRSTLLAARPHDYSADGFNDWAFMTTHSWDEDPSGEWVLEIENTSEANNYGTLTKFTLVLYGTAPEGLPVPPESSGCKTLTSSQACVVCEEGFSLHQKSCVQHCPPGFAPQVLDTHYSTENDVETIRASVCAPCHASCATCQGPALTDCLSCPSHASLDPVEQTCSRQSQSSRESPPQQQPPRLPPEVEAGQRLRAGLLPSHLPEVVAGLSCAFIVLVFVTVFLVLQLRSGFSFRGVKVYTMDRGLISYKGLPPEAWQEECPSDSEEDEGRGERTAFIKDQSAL
This is one part of the list. The true hit rate is not given.
Label label 1 when furin cleavage Z-score >= 1; otherwise label 0.

{"RESIDUE_CODES": "CARLGRSIDDAGNASASA [FS-2275]", "GROUP": "label 1"}
{"RESIDUE_CODES": "CAHSRTIKRSAGNASASA [FS-1632]", "GROUP": "label 1"}
{"RESIDUE_CODES": "CASTPCSAHQAGNASASA [HC2582]", "GROUP": "label 0"}
{"RESIDUE_CODES": "CAEVPCHLPSAGNASASA [HC2365]", "GROUP": "label 1"}
{"RESIDUE_CODES": "CARLKRNQEKAGNASASA [FS-2707]", "GROUP": "label 1"}

INPUT: furin cleavage Z-score >= 1 for CARLKRYHSQAGNASASA [FS-2156] ?
OUTPUT: label 1

INPUT: furin cleavage Z-score >= 1 for CARDVVCCSMAGNASASA [HC2113] ?
OUTPUT: label 1

INPUT: furin cleavage Z-score >= 1 for CAMAECSQHLAGNASASA [HC1683] ?
OUTPUT: label 0

INPUT: furin cleavage Z-score >= 1 for CARLKRSRLKAGNASASA [FS-1741] ?
OUTPUT: label 1

INPUT: furin cleavage Z-score >= 1 for CARSARKSNFAGNASASA [FS-3073] ?
OUTPUT: label 0

INPUT: furin cleavage Z-score >= 1 for CADVEVVTSTAGNASASA [HC2290] ?
OUTPUT: label 0

INPUT: furin cleavage Z-score >= 1 for CARKKKSISLAGNASASA [FS-1855] ?
OUTPUT: label 1

INPUT: furin cleavage Z-score >= 1 for CASVAHDGAGAGNASASA [HC1556] ?
OUTPUT: label 0

INPUT: furin cleavage Z-score >= 1 for CAEVVGSTWVAGNASASA [HC122] ?
OUTPUT: label 0

INPUT: furin cleavage Z-score >= 1 for CASTPCSAHLAGNASASA [HC2477] ?
OUTPUT: label 0

INPUT: furin cleavage Z-score >= 1 for CARVPCHRPSAGNASASA [HC2313] ?
OUTPUT: label 0
